Quick reference: koff of the listed items.
Molecular target: T1, recombinant human VEGF165 (human, UniProt P15692 27-191)
T1 construct: mature; Isoform VEGF165 of the entry; also called hVEGF165; hVEGF
T1 sequence (P15692 other isoform, or with tags, fused parts or gaps): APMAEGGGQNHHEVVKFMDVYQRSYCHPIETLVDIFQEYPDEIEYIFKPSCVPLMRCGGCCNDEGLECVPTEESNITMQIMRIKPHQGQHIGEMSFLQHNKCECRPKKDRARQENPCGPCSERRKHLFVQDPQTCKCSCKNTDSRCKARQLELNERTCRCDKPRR
Assay: Biacore SPR, VEGF immobilized, pH 7.4
Please state the value followed by its unit.

Param item = 578-min (scFv, also called EP578 min; Protein Nr; 820) scFv: EIVMTQSPSTLSASVGDRVIITCQASEIIHSWLAWYQQKPGKAPKLLIYLASTLASGVPSRFSGSGSGAEFTLTISSLQPDDFATYYCQNVYLASTNGANFGQGTKLTVLGGGGGSGGGGSGGGGSGGGGSEVQLVESGGGLVQPGGSLRLSCAASGFSLTDYYYMTWVRQAPGKGLEWVSFIDPDDDPYYATWAKGRFTISRDNSKNTLYLQMNSLRAEDTAVYYCAKGDHNSGWGLDIWGQGTLVTVSS ; retrieve measured koff. 0.000202 s⁻¹

Now let's try a different one.
Param item = 534-max (scFv, VL and VH tied by name; also called EP534max; Protein Nr; 793) scFv: EIVMTQSPSTLSASVGDRVIITCQASQSINIWLSWYQQKPGKAPKLLIYKESTLASGVPSRFSGSGSGTEFTLTISSLQPDDFATYYCQNNYDSGNNGFPFGQGTKLTVLGGGGGSGGGGSGGGGSGGGGSEVQLVESGGGLVQPGGSLRLSCTASGFSLSYYYMSWVRQAPGKGLEWVGIIGPGDYTDYASWAKGRFTISKDTSKNTVYLQMNSLRAEDTAVYYCARGDDNSGWGEDIWGQGTLVTVSS ; retrieve measured koff. 0.00262 s⁻¹
